// data source = ChEMBL document CHEMBL4706547

biological target: Tryptophan 2,3-dioxygenase (Homo sapiens); assay: Inhibition of TDO (unknown origin) assessed as reduction in L-kynurenine formation using L-tryptophan as substrate incubated for 30 mins microplate spectrophotometry analysis
Sequence (P48775 whole entry): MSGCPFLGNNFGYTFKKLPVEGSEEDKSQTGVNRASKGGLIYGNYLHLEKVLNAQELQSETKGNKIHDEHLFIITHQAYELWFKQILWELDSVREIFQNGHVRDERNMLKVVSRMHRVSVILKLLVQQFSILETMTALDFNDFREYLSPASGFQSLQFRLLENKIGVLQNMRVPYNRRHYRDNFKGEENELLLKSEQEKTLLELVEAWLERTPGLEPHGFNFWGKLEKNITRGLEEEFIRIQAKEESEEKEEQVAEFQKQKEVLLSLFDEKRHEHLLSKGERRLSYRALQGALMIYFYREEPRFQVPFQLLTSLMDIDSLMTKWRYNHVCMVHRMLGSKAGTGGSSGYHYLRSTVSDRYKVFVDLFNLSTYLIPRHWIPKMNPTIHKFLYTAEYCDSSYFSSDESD
metricName: IC50

Here's what some known entries look like.
| compound | valueMeasured |
| --- | --- |
| O=C1c2ccccc2C(=O)c2c1nnn2-c1ccccc1Cl | > 10 µM |
| NS(=O)(=O)NCCNc1nonc1C(=NO)Nc1ccc(F)c(Br)c1 [EPACADOSTAT] | > 10 µM |

Value of measured IC50 for the entry COc1ccc2c(c1)C(=O)c1c(nnn1-c1ccc(F)c(Cl)c1)C2=O : > 10 µM

====

target: Indoleamine 2,3-dioxygenase 1 (Homo sapiens, UniProt P14902)
Sequence (P14902 whole entry): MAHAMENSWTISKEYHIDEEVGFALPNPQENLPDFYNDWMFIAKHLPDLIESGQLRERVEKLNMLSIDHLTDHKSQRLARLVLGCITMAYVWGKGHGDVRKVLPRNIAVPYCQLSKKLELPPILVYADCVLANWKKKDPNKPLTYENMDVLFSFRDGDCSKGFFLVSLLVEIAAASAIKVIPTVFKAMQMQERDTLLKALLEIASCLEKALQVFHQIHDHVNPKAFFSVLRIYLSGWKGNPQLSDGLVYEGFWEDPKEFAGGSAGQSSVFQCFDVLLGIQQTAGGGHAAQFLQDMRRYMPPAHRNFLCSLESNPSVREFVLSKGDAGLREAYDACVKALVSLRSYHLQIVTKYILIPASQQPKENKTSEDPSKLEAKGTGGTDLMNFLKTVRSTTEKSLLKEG
pIC50: −log10 of the molar value.
metricName: pIC50

| smilesData | valueMeasured |
| --- | --- |
| CN1CCN(c2ccc(-n3nnc4c3C(=O)c3ccccc3C4=O)cc2)CC1 | < 5.00 |
| COc1ccc2c(c1)C(=O)c1c(nnn1-c1ccc(F)c(Cl)c1)C2=O | < 5.00 |

Value of measured pIC50 for the entry O=C1c2ccccc2C(=O)c2c1nnn2-c1ccccc1Cl : < 5.00
